# Test system: bone marrow stem cells
# Experiment: bone marrow stem cell proliferation (XTT)
# Format: cell-based, C57/BL6 mice
# Assay setup: concentration at maximum amplitude
Quantity kind: Max concentration (µg/mL)
A number alone suffices; assume µg/mL.

Solved entries (count: 2):
CCCCCCCCCCCC(=O)O[C@H](CCCCCCCCCCC)CC(=O)N[C@H](CC(=O)O)C(=O)NCCC[C@H](COC(=O)CCCCCNC(=O)CCC(=O)OC[C@@H]1C=C[C@H](n2cc(C)c(=O)[nH]c2=O)O1)NC(=O)C[C@H](O)CCCCCCCCCCC    50
CCCCCCCCCCCC(=O)O[C@H](CCCCCCCCCCC)CC(=O)N[C@@H](CCOP(=O)(O)O)C(=O)NCCC[C@H](COC(=O)CCCCCO)NC(=O)C[C@H](O)CCCCCCCCCCC [OM-197-MP-AC (S, R)]    6.25

According to the records, this molecule CCCCCCCCCCC[C@@H](O)CC(=O)N[C@H](CCCNC(=O)[C@@H](CC(=O)O)NC(=O)C(CCCCCC)OC(=O)CCCCCCCCC)COC(=O)CCCCCN (stereo partly shown) displays Max concentration of 6.25

According to the records, this molecule CCCCCCCCCCCC(=O)O[C@H](CCCCCCCCCCC)CC(=O)N[C@H](CC(=O)O)C(=O)NCCC[C@H](COC(=O)CCCCCNC(=O)CCC(=O)OC[C@H]1O[C@@H](n2cc(C)c(=O)[nH]c2=O)C[C@@H]1N=[N+]=[N-])NC(=O)C[C@H](O)CCCCCCCCCCC displays Max concentration of 12.5

====

Hi! I'm sharing some LAL EU/mg of product results obtained with Limulus Amoebocyte Lysate.

According to the records, this compound CCCCCCCCCCCC(=O)O[C@H](CCCCCCCCCCC)CC(=O)N[C@H](CC(=O)N[C@@H](CC(=O)O)C(=O)O)C(=O)NCCC[C@H](CO)NC(=O)C[C@H](O)CCCCCCCCCCC displays LAL EU/mg of product of <2.5 EU/mg of product

According to the records, this compound CCCCCCCCCCCC(=O)O[C@H](CCCCCCCCCCC)CC(=O)N[C@H](CC(=O)O)C(=O)NCCC[C@H](COC(=O)CCC(=O)O)NC(=O)C[C@H](O)CCCCCCCCCCC displays LAL EU/mg of product of 5.3 EU/mg of product

According to the records, this compound CCCCCCCCCCCC(=O)O[C@H](CCCCCCCCCCC)CC(=O)N[C@H](CC(=O)O)C(=O)NCCC[C@H](CO)NC(=O)C[C@H](O)CCCCCCCCCCC displays LAL EU/mg of product of 88.6 EU/mg of product

According to the records, this compound CCCCCCCCCCCC(=O)O[C@H](CCCCCCCCCCC)CC(=O)NC(CCOP(=O)(O)O)C(=O)NCCC[C@H](COC(=O)CCCCCN)NC(=O)C[C@H](O)CCCCCCCCCCC (mixture of isomers) [OM-197-MP-AC (R/S, R)] displays LAL EU/mg of product of 0.14 EU/mg of product

According to the records, this compound CCCCCCCCCCCC(=O)O[C@H](CCCCCCCCCCC)CC(=O)N[C@@H](CCOP(=O)(O)O)C(=O)NCCC[C@H](COC(=O)CCCCCO)NC(=O)C[C@H](O)CCCCCCCCCCC [OM-197-MP-AC (S, R)] displays LAL EU/mg of product of <0.125 EU/mg of product
